Data provenance is PubChem BioAssay.

// values below are reported growth inhibition
Assay: OD615 S. cerevisiae growth inhibition, permissive medium, pilot counter-assay, permissive growth control for S. cerevisiae lifespan shortening project (AID 705)
Conditions: OD615, 24 h, at 10 µM, hits give high values
Calls of active or inactive are those of the source.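 Rule for the calls: active = growth inhibition above 25% in both replicates, a cutoff set 3 SD above the mean; inconclusive = above 25% in only one replicate; inactive = the rest.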
readoutKind: growth inhibition

>  <molecule>
CCOC(=O)/C=C/S(=O)(=O)c1ccc(NC(C)=O)cc1

>  <measuredValue>
-24.4% (inactive)

$$$$
>  <molecule>
O=S(=O)(CCc1ccccc1)N1CCOCC1

>  <measuredValue>
1.85% (inactive)

$$$$
>  <molecule>
CC(=O)N(CCCN(C)C)CCC(C)CCC=C(C)C (stereo unspecified)

>  <measuredValue>
-7.18% (inactive)

$$$$
>  <molecule>
Cc1ccc(-c2nc(CS(=O)CC(=O)NCCN3CCCC3)c(C)o2)cc1 (stereo unspecified)

>  <measuredValue>
-8.03% (inactive)

$$$$
>  <molecule>
Cc1ccccc1Cn1c(CN2CCN(c3ccc(F)cc3)CC2)nc2c1c(=O)n(C)c(=O)n2C

>  <measuredValue>
-12.2% (inactive)

$$$$
>  <molecule>
CCCc1ccc(OCC(O)CN2CCN(c3ccccc3)CC2)cc1 (stereo unspecified)

>  <measuredValue>
4.55% (inactive)

$$$$
>  <molecule>
Clc1ccc(C=NC23CN4CN(CN(C4)C2)C3)cc1

>  <measuredValue>
8.77% (inactive)

$$$$
>  <molecule>
O=C1CC(c2ccco2)CC(O)=C1C=NCCO (stereo unspecified)

>  <measuredValue>
-12.7% (inactive)

$$$$
>  <molecule>
COc1cccc(-c2nc(CS(=O)CC(=O)NCc3ccccc3)c(C)o2)c1 (stereo unspecified)

>  <measuredValue>
-9.55% (inactive)

$$$$
>  <molecule>
Cc1c(Nc2nc3ccccc3nc2N2CCN(c3ccccc3)CC2)c(=O)n(-c2ccccc2)n1C

>  <measuredValue>
-2.84% (inactive)

$$$$
>  <molecule>
Cc1cc(Nc2cccc(F)c2)n2ncnc2n1

>  <measuredValue>
-0.15% (inactive)

$$$$
